target.desc: GPER (Homo sapiens, UniProt Q99527)
Sequence (Q99527 whole entry): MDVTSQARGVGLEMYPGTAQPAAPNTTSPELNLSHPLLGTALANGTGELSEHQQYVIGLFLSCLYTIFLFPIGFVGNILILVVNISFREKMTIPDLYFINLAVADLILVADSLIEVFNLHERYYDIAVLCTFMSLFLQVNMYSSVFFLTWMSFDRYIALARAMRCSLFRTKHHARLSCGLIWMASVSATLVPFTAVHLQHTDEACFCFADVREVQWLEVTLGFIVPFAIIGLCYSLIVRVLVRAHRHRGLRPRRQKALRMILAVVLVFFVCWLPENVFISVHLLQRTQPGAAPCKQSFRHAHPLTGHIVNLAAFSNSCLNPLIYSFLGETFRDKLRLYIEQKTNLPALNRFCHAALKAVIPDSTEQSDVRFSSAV
experiment.description: SKBR3 cell-based fluorescence competitive binding assay (E2-F probe, flow cytometry)
measurement.parameters: ratio between IC50 of E2 and compounds; E2 = 100%
RBA (relative binding affinity) values for the compounds below.

# compound, RBA (relative binding affinity)
records = [
    ("Oc1cc(Br)c(Oc2ccc(Br)cc2Br)cc1Br", "9.3%"),
    ("Oc1c(Br)c(Br)c(Br)c(Br)c1Oc1cc(Br)c(Br)cc1Br", "5.4%"),
    ("Oc1cc(Oc2ccc(Br)cc2Br)ccc1Br [3ʹ-OH-BDE-028, 3'-hydroxy-2,4,4'-tribromodiphenyl ether]", "8.7%"),
    ("Oc1c(Br)c(Br)c(Oc2c(Br)cc(Br)c(Br)c2Br)c(Br)c1Br", "4.9%"),
    ("Oc1ccccc1Oc1ccc(Br)cc1 [2ʹ-OH-BDE-003, 2'-hydroxy-4-monobromodiphenyl ether]", "1.3%"),
    ("Oc1c(Br)c(Br)c(Oc2cc(Br)c(Br)cc2Br)c(Br)c1Br", "4.2%"),
    ("Oc1cccc(Oc2ccc(Br)cc2Br)c1 [3ʹ-OH-BDE-007, 3'-hydroxy-2,4-dibromodiphenyl ether]", "10.0%"),
]

----------
LOEC, SKBR3 cell migration, wound-healing assay values for the compounds below.
System: SKBR3 cells
experiment.description: Wound-healing cell migration assay
Type: cell-based, human
measurement.parameters: 48 h
Method: For the wound-healing assays, SKBR3 cells were seeded in 12-well microplates at a density of 2.5×10^5 cells/well, incubated first in phenol red–free RPMI 1640 with 10% FBS for 12 h and then in phenol red–free RPMI 1640 without FBS for another 12 h. […] The change in the scratch area was evaluated using Image-Pro Plus 6.0 (Media Cybernetics). The relative cell migration was calculated by comparing the change in the wound area in the treated wells with those in the control wells.
measurement.label: LOEC, SKBR3 cell migration, wound-healing assay (nM)

# compound, quantitative.readout
measured = [
    ("C[C@]12CC[C@@H]3c4ccc(O)cc4CC[C@H]3[C@@H]1CC[C@@H]2O [E2, 17β-estradiol, reference compound]", 1),
    ("Oc1c(Br)cc(Br)c(Oc2cc(Br)c(Br)cc2Br)c1Br [3ʹ-OH-BDE-154]", 100),
    ("CC(=O)c1ccc2c(c1)C1C=CCC1C(c1cc3c(cc1Br)OCO3)N2 (centres unmarked) [G1, reference compound]", 1),
    ("Oc1cc(Oc2cc(Br)c(Br)cc2Br)c(Br)cc1Br [5ʹ-OH-BDE-099]", 100),
    ("Oc1cc(Br)c(Oc2ccc(Br)cc2Br)cc1Br [4ʹ-OH-BDE-049]", 1000),
]

----------
target.desc: GPER (Homo sapiens)
experiment.description: SKBR3 cell-based fluorescence competitive binding assay (E2-F probe, flow cytometry)

# smi, IC50 (µM)
data = [
    ("Oc1c(Br)ccc(Oc2ccc(Br)cc2Br)c1Br", 12),
]

----------
target.desc: GPER (Homo sapiens)
experiment.description: cell-based
IC50 values for the compounds below.

# compound, target.desc, IC50 [nM]
records = [
    ("Oc1ccccc1Oc1ccc(Br)cc1 [2ʹ-OH-BDE-003, 2'-hydroxy-4-monobromodiphenyl ether]", "GPER (Homo sapiens)", 20000),
    ("Oc1cc(Oc2ccc(Br)cc2Br)ccc1Br [3ʹ-OH-BDE-028, 3'-hydroxy-2,4,4'-tribromodiphenyl ether]", "GPER (Homo sapiens)", 3000),
    ("Oc1cc(Br)c(Oc2ccc(Br)cc2Br)cc1Br", "GPER (Homo sapiens)", 2800),
    ("Oc1cccc(Oc2ccc(Br)cc2Br)c1 [3ʹ-OH-BDE-007, 3'-hydroxy-2,4-dibromodiphenyl ether]", "GPER (Homo sapiens)", 2600),
]
